system: MDA-MB-468 breast; assay: NCI-60 one-dose screen, 48 h; settings: 10 µM unless noted
This is part of a sample that, as a whole, favours compounds with a hit. Of some 83,000 tested, about 20% had one in any assay. Active and inactive are the calls of the source. How the source made its calls: active means growth percent below 10; inactive means the rest.
I would appreciate it if you answered using one of these outcomes: active, inactive

# count of solved cases: 2
>>> assigned_class("O=S(=O)(NCCNc1nccc(-c2c(-c3cccc(F)c3)nc3occn23)n1)c1ccc(Br)cc1")
"inactive"
>>> assigned_class("CCOC(=O)c1cc(C(=O)c2ccc(Br)cc2)n2cc(C)cc(C)c12")
"inactive"

What call does the record list for "CC(C)(O)c1cncc(-c2ccc3ncc(C#N)c(N4CCc5cc(F)c(Cl)cc54)c3c2)c1" ?
inactive

What did the test return for COc1ccc2c(c1)OC(N)=C(C#N)C2c1ccc(F)c(F)c1 (stereo not given) ?
active

Returns: the outcome recorded for "Cc1cc(C(=O)Nc2sc3c(c2C(N)=O)CCC(=O)C3)ccc1OCCN1CCCCC1" in this assay.
inactive

====

System: MDA-MB-468 breast
Test: NCI-60 one-dose screen, 48 h (100 = growth as untreated, 0 = no growth, -100 = all killed)
Settings: 10 µM unless noted
Protocol: Growth inhibition of the MDA-MB-468 human Breast tumor cell line is measured as a screen for anti-cancer activity. Cells are grown in 96 well plates and exposed to the test compound for 48 hours. Compounds are tested at a single concentration, which is 10^-5 M for most compounds. The reported endpoint is percent growth (GI% or GIPRCNT), where numbers from 0 - 100% represent growth inhibition, and numbers from -100% - 0 represent cell death. […]
The panel holds about 83,000 compounds, 20% with a hit somewhere; the sample as a whole holds those more often.
growth by entry:
Use % as the unit, but write only the number.

State the recorded growth for this entry: CC1(C(N)=O)CCC(C(=O)O)C1(C)C (configuration not stated)
99.2

What measured growth goes with "Cc1cc(NCc2cc(Nc3ccnc4cc(Cl)ccc34)ccc2F)nc(N2CCCC2)n1" ?
-35.4

Which growth reading was recorded for the compound CCCCCCC(C)c1ccccc1O (configuration not stated) (tested in a mixture with another compound) ?
124

Given the entry "c1ccc2cc3nc4cc5ccccc5cc4nc3cc2c1" , report its measured growth.
117

State the recorded growth for this entry: "O=S(=O)(CCN1CCOCC1)Nc1cc(-c2ccc3ncnc(Nc4ccc(F)c(Cl)c4)c3c2)cnc1Cl"
-34.4

Return reported growth; argument: "Cc1ccc(/C=C2/C(=O)Nc3cc(Cl)c(-c4csc(N)n4)cc32)cc1"
15.2

Reported growth, compound "CCC(CC)n1c(C)cc(=O)n1C(CC)CC" : ____
91.2

====

test system: MDA-MB-468 breast; assay: NCI-60 one-dose screen, 48 h (100 = growth as untreated, 0 = no growth, -100 = all killed); settings: 10 µM unless noted
This is part of a sample that, as a whole, favours compounds with a hit. Of some 83,000 tested, about 20% had one in any assay. The source made the active and inactive calls. How the source made its calls: active means growth percent below 10; inactive means the rest.
# growth per entry

>>> result("COc1ccc(C(=NN=C(N)N)c2ccc(OC)cc2)cc1")
"-17.7% (active)"

Request body: readout growth, system MDA-MB-468 breast, query "O=c1cc(-c2ccccc2)nc2sc(-c3c[nH]c4ccc(F)cc34)nn12" . Return the value.
67.4% (inactive)

====

system: MDA-MB-468 breast; assay: NCI-60 one-dose screen, 48 h; settings: 10 µM unless noted
Compounds without any hit were thinned out: in the full panel of roughly 83,000, 20% have a hit. The source made the active and inactive calls. Rule for the calls: active = growth percent below 10; inactive = the rest.
Your answer must be one of the following: true (active), false (inactive)

>>> assigned_class("N=C1CC(=O)NN1C(=O)CSc1nc2sc3c(c2c(=O)n1-c1ccc(Cl)cc1)CCCC3")
"false"

I'd appreciate the recorded outcome for "C=C1C(=O)O[C@H]2[C@H]1CC/C(COC(=O)NCc1ccc(Cn3c(=O)sn(CCCCC)c3=O)cc1)=C\CC[C@@]1(C)O[C@@H]21" from this test.
true

Which result was noted for this compound in the test: "CCN(CC)CCOc1nc2ccccc2c2c1-c1ccc(OC)cc1C2=O"
false

====

test system: MDA-MB-468 breast; assay: NCI-60 one-dose screen, 48 h (100 = growth as untreated, 0 = no growth, -100 = all killed); details: 10 µM unless noted
About 83,000 compounds went through this panel and 20% of them were active in at least one assay; those are over-represented in the sample as a whole.
# growth >= 10% gives t, anything below gives f

>>> assigned_class("O=CCCCOCc1ccccc1")
"t"
>>> assigned_class("Cc1[nH]nc2c(=S)[nH]c(=O)[nH]c12")
"t"
>>> assigned_class("CCCCN1C(=O)/C(=c2\\sc3n(c2=O)C2C(NN=3)N(CC)C(=O)N2CC)c2cccc(C)c21 (stereo unspecified)")
"t"
>>> assigned_class("CC(=O)c1cc2c(N)c(C(=O)Nc3cccc(Cl)c3)sc2nc1C")
"t"
>>> assigned_class("CC(=O)O[C@H]1CC[C@@]2(C)[C@@H](CC[C@@H]3[C@@H]2CC[C@]2(C)C=C(C=O)C[C@@H]32)C1")
"t"

Is it the case that "N=C1C=C(N)C(=O)c2ccccc21" has growth reaching or exceeding 10%?
f

====

test system: MDA-MB-468 breast; experiment: NCI-60 one-dose screen, 48 h; details: 10 µM unless noted
The panel holds about 83,000 compounds, 20% with a hit somewhere; the sample as a whole holds those more often. Active and inactive are the calls of the source. Rule for the calls: active = growth percent below 10; inactive = the rest.
Field 'call' accepts active, inactive

Recorded call for C#CCOC(=O)C(N)CSSCC(N)C(=O)O (stereo not given) ?
inactive

I would be grateful if you could indicate the recorded call for "Nc1nc(Cl)cc(Cl)n1" .
inactive

Dear colleague, could you share the recorded outcome for "CC(=O)/C(=C/c1ccc(-c2ccccc2)cc1)C(=O)c1ccccc1" when you have a moment?
inactive

Can you look up the reported call for "COc1ccc(S(=O)(=O)Nc2ccc(OCc3nnc(-c4ccc(Cl)cc4)o3)c(F)c2)cc1" for me?
inactive

====

test system: MDA-MB-468 breast; experiment: NCI-60 one-dose screen, 48 h; details: 10 µM unless noted
The panel holds about 83,000 compounds, 20% with a hit somewhere; the sample as a whole holds those more often. Activity calls are given as the source filed them. How the source made its calls: active means growth percent below 10; inactive means the rest.
Use one of these outcomes when replying: active, inactive

As a guide, the following entries are already answered.
>>> assigned_class("CC(=O)N[C@@H](CCC(N)=O)C(=O)O")
"inactive"
>>> assigned_class("CC1CCCC(C(=O)O)C1C(=O)O (configuration not stated)")
"inactive"
>>> assigned_class("C=C(C)[C@@H]1CC[C@]2(C(=O)OC)CC[C@]3(C)[C@H](CC[C@@H]4[C@@](C)(CCc5nn[nH]n5)[C@H](C(=C)C)CC[C@]43C)[C@@H]12")
"active"
>>> assigned_class("Cc1ccc(NC(=O)N/C(N)=N/c2nc(=O)c3ccccc3s2)cc1")
"inactive"
>>> assigned_class("COc1ccc(Nc2ncc(C(N)=O)c(NCCCNC(=O)C3CCC3)n2)cc1")
"inactive"
>>> assigned_class("Fc1ccc(Cc2ccc(F)cc2)cc1")
"inactive"
>>> assigned_class("Cc1ccc(Sc2sc(-c3ccccc3)nc2[P+](c2ccccc2)(c2ccccc2)c2ccccc2)cc1")
"active"
>>> assigned_class("C/C(=N\\O)c1ccc(NC(=O)CSc2nnc(-c3ccccc3)n2-c2ccccc2)cc1")
"inactive"
>>> assigned_class("CC(C)(C)N1CC(OC(N)=O)C1")
"inactive"
>>> assigned_class("CN(C)CCCn1c2c(c3cc(-c4ccco4)ccc3c1=O)C(=O)c1ccccc1-2")
"inactive"

Kindly provide the recorded test outcome for the following molecule: "Cc1c2cnccc2c(C)c2c1c1cc(CO)ccc1n2C"
active

Write down the call the test reported for this molecule. Item: "C(=N\Nc1ccc2ccccc2n1)/c1ccccn1"
active

====

Measured growth, listed per entry.
test system: MDA-MB-468 breast; assay: NCI-60 one-dose screen, 48 h (100 = growth as untreated, 0 = no growth, -100 = all killed); details: 10 µM unless noted
About 83,000 compounds went through this panel and 20% of them were active in at least one assay; those are over-represented in the sample as a whole. Activity calls are given as the source filed them. How the source made its calls: active means growth percent below 10; inactive means the rest.

Consider the worked cases shown below.
>>> result("CC1=C(C(=O)Nc2ccccc2)C(c2ccc3c(c2)OCO3)NC(=S)N1 (centres undefined)")
"108% (inactive)"
>>> result("COC(=O)[C@]1(C)CCC[C@]2(C)[C@H]3C[C@@H]4[C@H]5[C@@H]6CC/C(=N\\OCC/C(N)=N/O)[C@H]5[C@@]3(CC[C@H]21)CC4(C(C)C)O6")
"64.1% (inactive)"
>>> result("CCC(C)(c1cc(C(C)(C)C)c(O)c(C(C)(C)C)c1)c1cc(C(C)(C)C)c(O)c(C(C)(C)C)c1")
"112% (inactive)"
>>> result("S=C(c1ccc2c(c1)OCO2)N1CCN(c2cccc(Cl)c2)CC1")
"6.42% (active)"

Tell me the measured growth of "O=S(=O)(NCCCNc1nccc(-c2c(-c3ccc(O)cc3)nc3sccn23)n1)c1ccc(F)cc1" , please.
-19.2% (active)

Reported growth for "O=[N+]([O-])c1ccc(N/N=C/C2CCCCCC2)c([N+](=O)[O-])c1" : what is it?
86.4% (inactive)

// growth lookup, key: "COc1ccc(-c2cnc(-c3ccncc3-c3cccc(OC)c3)o2)cc1"
31.8% (inactive)

Using the record for "COc1cc(-c2c(C#N)c(N)n3c(nc4ccccc43)c2C#N)cc(Br)c1OC" , report its growth.
36.5% (inactive)

Given the entry "CCCNNC(=O)c1ccc(-c2ccc(NC(=O)CCCCCCC(=O)N[C@H](C(=O)N3C[C@H](O)C[C@H]3C(=O)N[C@@H](C)c3ccc(-c4scnc4C)cc3)C(C)(C)C)cc2)cc1" , report its measured growth.
-10.1% (active)
